- Tested on: Caenorhabditis elegans N2
- measurementDescription: food intake (mean delta OD600 / animal over 72 h) with 50 uM loxapine co-treatment (OD600 units per animal); higher = more food eaten (less suppression of loxapine-induced hyperphagia)
- conditionsUsed: first compound 33 µM, loxapine concentration 50 µM
Structures can show the parent of a compound that is named as a salt.
metricName: food intake
Enter a number only.

Consider the following illustrative entries.
O=C1CC2(CCCC2)CC(=O)N1CCCCN1CCN(c2ncccn2)CC1 [buspirone (hydrochloride)] + CN1CCN(C2=Nc3ccccc3Oc3ccc(Cl)cc32)CC1 [loxapine]    0.0245
CC(CCc1ccccc1)NCC(O)c1ccc(O)c(C(N)=O)c1 (centres undefined) [labetalol (hydrochloride)] + CN1CCN(C2=Nc3ccccc3Oc3ccc(Cl)cc32)CC1 [loxapine]    0.0213
CN(C)CCOC(c1ccccc1)c1ccccc1.Cn1c(=O)c2[nH]c(Cl)nc2n(C)c1=O [dimenhydrinate] + CN1CCN(C2=Nc3ccccc3Oc3ccc(Cl)cc32)CC1 [loxapine]    0.0239

Turning now to a further record.
Req: Please report the recorded food intake for Nc1ccc(S(=O)(=O)c2ccc(N)cc2)cc1 [dapsone] + CN1CCN(C2=Nc3ccccc3Oc3ccc(Cl)cc32)CC1 [loxapine] .
Resp: 0.0216

---

- Test system: Caenorhabditis elegans N2
- measurementDescription: food intake (mean delta OD600 / animal over 72 h) with 50 uM loxapine co-treatment (OD600 units per animal); higher = more food eaten (less suppression of loxapine-induced hyperphagia)
- conditionsUsed: first compound 33 µM, loxapine concentration 50 µM
Where a name gives a salt, the structure may show the parent alone.
metricName: food intake
The answer should be a number; do not append a unit.

CN(C)CCC=C1c2ccccc2C=Cc2ccccc21 [cyclobenzaprine (hydrochloride)] + CN1CCN(C2=Nc3ccccc3Oc3ccc(Cl)cc32)CC1 [loxapine]    0.0221
Cc1ccc(C)c(OCCCC(C)(C)C(=O)O)c1 [Gemfibrozil] + CN1CCN(C2=Nc3ccccc3Oc3ccc(Cl)cc32)CC1 [loxapine]    0.0247

// next item, food intake requested
Req: Returns the measured food intake for the input molecule. Input: CC(=O)N1CCN(c2ccc(OCC3COC(Cn4ccnc4)(c4ccc(Cl)cc4Cl)O3)cc2)CC1 (stereo not drawn) [ketoconazole] + CN1CCN(C2=Nc3ccccc3Oc3ccc(Cl)cc32)CC1 [loxapine]
Resp: 0.0239

---

- System: Caenorhabditis elegans N2
- measurementDescription: food intake (mean delta OD600 / animal over 72 h) with 50 uM loxapine co-treatment (OD600 units per animal); higher = more food eaten (less suppression of loxapine-induced hyperphagia)
- conditionsUsed: first compound 33 µM, loxapine concentration 50 µM
Structures can show the parent of a compound that is named as a salt.
Use 0.02 as the dividing line for food intake, with the line itself on the Y side and lower values as N.

COc1ccc(C(=O)NCc2ccc(OCCN(C)C)cc2)cc1OC [itopride (hydrochloride)] + CN1CCN(C2=Nc3ccccc3Oc3ccc(Cl)cc32)CC1 [loxapine]    Y
CC1=C(C)C(=O)C(C(CCCCCC(=O)O)c2ccccc2)=C(C)C1=O (stereo unspecified) [seratrodast] + CN1CCN(C2=Nc3ccccc3Oc3ccc(Cl)cc32)CC1 [loxapine]    Y

Req: Kindly determine if food intake recorded for CC(C(=O)O)c1ccc2c(c1)CC(=O)c1ccccc1S2 (stereo unspecified) [zaltoprofen] + CN1CCN(C2=Nc3ccccc3Oc3ccc(Cl)cc32)CC1 [loxapine] is above or exactly 0.02.
Resp: Y
